Just for reference, ChEMBL document CHEMBL3769372 is where these values come from.

- measuredTarget: Structural capsid protein (Human immunodeficiency virus 1, UniProt Q76129)
- Sequence (Q76129 whole entry, the tested form may be a part): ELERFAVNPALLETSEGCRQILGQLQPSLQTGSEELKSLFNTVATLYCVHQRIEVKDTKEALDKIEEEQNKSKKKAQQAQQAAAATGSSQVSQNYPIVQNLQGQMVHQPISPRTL
- assayOverview: Binding affinity to full length HIV1 NL4-3 dimeric capsid (1 to 231 residues) by isothermal titration calorimetry
reportedProperty: pKd
Recall that pKd is obtained by taking minus log10 of the concentration measured in molar.

Response field pKd (Structural capsid protein (Human immunodeficiency virus 1, UniProt Q76129)) for item CCOC(=O)c1ccc(Nc2nc(-c3ccncc3)nc3ccccc23)cc1 : 6.85

----------
Form field: viability at 48 h, 10 µM (one value per entry).
- assayOverview: Cytotoxicity against human TZM-bl cells assessed as cell viability at 10 uM after 48 hrs by MTS assay relative to control
- Type: cell-based
- testSettings: read-out: Activity
API: value field is a number in %; no unit string.

Example results:
compound=CCOC(=O)c1cccc(Nc2nc(-c3ccncc3)nc3ccccc23)c1 unitstext=% reportedresult=96
compound=N#Cc1ccc(Nc2nc(-c3ccncc3)nc3ccccc23)cc1 unitstext=% reportedresult=96
compound=OC(c1ccc(Nc2nc(-c3cccnc3)nc3ccccc23)cc1)(C(F)(F)F)C(F)(F)F unitstext=% reportedresult=46
compound=O=C(O)c1ccc(Nc2nc(-c3ccncc3)nc3ccccc23)cc1 unitstext=% reportedresult=98
compound=CS(=O)(=O)c1ccc(Nc2nc(-c3ccncc3)nc3ccccc23)cc1 unitstext=% reportedresult=97

Input C[S+]([O-])c1ccc(Nc2nc(-c3ccncc3)nc3ccccc23)cc1 (stereo not given) . Output viability at 48 h, 10 µM: 98

Input O=C(c1ccc(Nc2nc(-c3cccnc3)nc3ccccc23)cc1)C(F)(F)F . Output viability at 48 h, 10 µM: 62

Input CCNS(=O)(=O)c1ccc(Nc2nc(-c3cccnc3)nc3ccccc23)cc1 . Output viability at 48 h, 10 µM: 97

Input CC(O)c1ccc(Nc2nc(-c3cccnc3)nc3ccccc23)cc1 (stereo not given) . Output viability at 48 h, 10 µM: 98

Input NC(=O)c1ccc(Nc2nc(-c3ccncc3)nc3ccccc23)cc1 . Output viability at 48 h, 10 µM: 97

----------
- measuredTarget: Structural capsid protein (Human immunodeficiency virus 1, UniProt Q76129)
- assayOverview: Binding affinity to HIV1 NL4-3 dimeric capsid C-terminal domain (146 to 231 residues) by isothermal titration calorimetry
reportedProperty: Kd
Please don't drop the unit; write it after the number.

Input CCOC(=O)c1ccc(Nc2nc(-c3ccncc3)nc3ccccc23)cc1 . Output Kd: 0.038 µM

----------
- measuredTarget: Structural capsid protein (Human immunodeficiency virus 1, UniProt Q76129)
- assayOverview: Binding affinity to recombinant N-terminal GST-tagged HIV1 NL4-3 capsid C-terminal domain (146 to 231 residues) incubated for 2 hrs by alphascreen assay
Form field: IC50 (one value per entry).
API: value field is a number in µM; no unit string.

samplesmiles=N#Cc1ccc(Nc2nc(-c3ccncc3)nc3ccccc23)cc1 reportedproperty=IC50 reportedresult=4
samplesmiles=CC(=O)c1ccc(Nc2nc(-c3cccnc3)nc3ccccc23)cc1 reportedproperty=IC50 reportedresult=14
samplesmiles=CCOC(=O)c1cccc(Nc2nc(-c3cccnc3)nc3ccccc23)c1 reportedproperty=IC50 reportedresult=68
samplesmiles=CCOC(=O)c1ccc(Nc2nc(-c3cccnc3)nc3ccccc23)cc1 reportedproperty=IC50 reportedresult=47
samplesmiles=CON(C)C(=O)c1ccc(Nc2nc(-c3cccnc3)nc3ccccc23)cc1 reportedproperty=IC50 reportedresult=37

Input CC(=O)c1cccc(Nc2nc(-c3cccnc3)nc3ccccc23)c1 . Output IC50: 30

Input CC(=O)c1ccc(Nc2nc(-c3ccncc3)nc3ccccc23)cc1 . Output IC50: 9

Input CCOC(=O)c1ccccc1Nc1nc(-c2ccncc2)nc2ccccc12 . Output IC50: 37

Input O=C(NCCF)c1ccc(Nc2nc(-c3cccnc3)nc3ccccc23)cc1 . Output IC50: 3

Input NS(=O)(=O)c1ccc(Nc2nc(-c3cccnc3)nc3ccccc23)cc1 . Output IC50: 80

Input CCOC(=O)c1ccc(Nc2nc(-c3cccnc3C)nc3ccccc23)cc1 . Output IC50: 14

Input CCOC(=O)c1cccc(Nc2nc(-c3ccncc3)nc3ccccc23)c1 . Output IC50: 21

Input CONC(=O)c1ccc(Nc2nc(-c3cccnc3)nc3ccccc23)cc1 . Output IC50: 63

Input CCOC(=O)c1ccc(Nc2nc(-c3ccncc3)nc3ccccc23)cc1 . Output IC50: 8

----------
- assayOverview: Cytotoxicity against human TZM-bl cells assessed as cell viability at 10 uM after 48 hrs by MTS assay relative to control
- Format: cell-based
- testSettings: read-out: Activity
reportedProperty: viability at 48 h, 10 µM (%)
API: value field is a number in %; no unit string.

Input CSc1ccc(Nc2nc(-c3ccncc3)nc3ccccc23)cc1 . Output viability at 48 h, 10 µM: 95

----------
- assayOverview: Cytotoxicity against human TZM-bl cells assessed as cell viability at 10 uM after 48 hrs by MTS assay relative to control
- Assay type: cell-based
- testSettings: read-out: Activity
reportedProperty: viability at 48 h, 10 µM (%)
API: value field is a number in %; no unit string.

Example results:
compound=CC(=O)c1cccc(Nc2nc(-c3cccnc3)nc3ccccc23)c1 unitstext=% reportedresult=89
compound=CCOC(=O)c1ccccc1Nc1nc(-c2ccncc2)nc2ccccc12 unitstext=% reportedresult=97
compound=O=C(NCCF)c1ccc(Nc2nc(-c3cccnc3)nc3ccccc23)cc1 unitstext=% reportedresult=90
compound=CCOC(=O)c1ccc(Nc2nc(-c3ccncc3)nc3ccccc23)cc1 unitstext=% reportedresult=96

Kindly review the next compound as well.
Input OC(c1ccc(Nc2nc(-c3cccnc3)nc3ccccc23)cc1)C(F)(F)F (stereo unspecified) . Output viability at 48 h, 10 µM: 87

----------
- assayOverview: Cytotoxicity against human TZM-bl cells assessed as cell viability at 10 uM after 48 hrs by MTS assay relative to control
- Type: cell-based
- testSettings: read-out: Activity
Form field: viability at 48 h, 10 µM (one value per entry).
API: value field is a number in %; no unit string.

samplesmiles=NS(=O)(=O)c1ccc(Nc2nc(-c3cccnc3)nc3ccccc23)cc1 unitstext=% reportedresult=98
samplesmiles=CCOC(=O)Cc1ccc(Nc2nc(-c3cccnc3)nc3ccccc23)cc1 unitstext=% reportedresult=98
samplesmiles=CONC(=O)c1ccc(Nc2nc(-c3cccnc3)nc3ccccc23)cc1 unitstext=% reportedresult=99
samplesmiles=CCOC(=O)c1cccc(Nc2nc(-c3cccnc3)nc3ccccc23)c1 unitstext=% reportedresult=83
samplesmiles=CC(=O)c1ccc(Nc2nc(-c3ccncc3)nc3ccccc23)cc1 unitstext=% reportedresult=96

Input CON(C)C(=O)c1ccc(Nc2nc(-c3cccnc3)nc3ccccc23)cc1 . Output viability at 48 h, 10 µM: 97

Input CCOC(=O)c1ccc(Nc2nc(-c3cccnc3C)nc3ccccc23)cc1 . Output viability at 48 h, 10 µM: 100

Input CC(=O)c1ccc(Nc2nc(-c3cccnc3)nc3ccccc23)cc1 . Output viability at 48 h, 10 µM: 93

Input CCOC(=O)c1ccc(Nc2nc(-c3cccnc3)nc3ccccc23)cc1 . Output viability at 48 h, 10 µM: 84

Input CCNC(=O)c1ccc(Nc2nc(-c3cccnc3)nc3ccccc23)cc1 . Output viability at 48 h, 10 µM: 97

Input O=C(NCCO)c1ccc(Nc2nc(-c3cccnc3)nc3ccccc23)cc1 . Output viability at 48 h, 10 µM: 100
